Below, each entry is listed alongside its reported 50% inhibition concentration, Regnase-1 phosphorylation by TBK1 (AlphaScreen).
- test.system: T1, full-length human Regnase-1 with a FLAG tag on the N-terminal side and a biotin ligase BirA recognition … (human, UniProt Q5D1E8 1-599, biotinylated at the BirA recognition sequence when required)
- T1 sequence: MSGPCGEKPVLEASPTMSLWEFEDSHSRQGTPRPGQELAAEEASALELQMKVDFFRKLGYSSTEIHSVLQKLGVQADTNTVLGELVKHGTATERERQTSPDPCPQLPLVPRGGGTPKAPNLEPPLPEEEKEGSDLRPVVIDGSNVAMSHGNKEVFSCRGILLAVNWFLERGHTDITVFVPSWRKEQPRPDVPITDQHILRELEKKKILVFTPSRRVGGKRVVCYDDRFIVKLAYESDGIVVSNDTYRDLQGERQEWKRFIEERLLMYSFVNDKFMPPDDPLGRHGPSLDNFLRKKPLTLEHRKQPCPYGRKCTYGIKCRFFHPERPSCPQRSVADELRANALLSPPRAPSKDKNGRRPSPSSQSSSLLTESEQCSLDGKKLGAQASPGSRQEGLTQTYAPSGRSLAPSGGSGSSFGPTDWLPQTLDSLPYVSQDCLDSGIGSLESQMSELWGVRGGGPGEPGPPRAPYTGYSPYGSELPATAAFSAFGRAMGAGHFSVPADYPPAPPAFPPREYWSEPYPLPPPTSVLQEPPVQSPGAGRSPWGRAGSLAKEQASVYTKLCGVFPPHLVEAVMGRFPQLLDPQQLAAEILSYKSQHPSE
- method: cell-based or functional assay
Positions of bridges follow the written chain, without caps; N, C: chain ends. Non-standard residues stand in square brackets, D forms with d. *: point of attachment. Pyrrolidide = C1CCN(*)C1; dNMeA = CN[C@H](C)C(=O)O
Write it as a number; the unit µM goes unstated.

Some binders with known 50% inhibition concentration, Regnase-1 phosphorylation by TBK1 (AlphaScreen) results, for comparison:
>>> quantitative_result("[dNMeA]PTSSWYKIWD-Pyrrolidide (lactam N-11) [PP23]")
18.8
>>> quantitative_result("XRYAVYQWIYPD (HELM PEPTIDE1{[meA].R.Y.A.V.Y.Q.W.I.Y.P.D.[C1CCN([*:1])C1]}$PEPTIDE1,PEPTIDE1,1:R1-12:R3$$$V2.0; SMILES CC[C@H](C)[C@@H]1NC(=O)[C@H](Cc2c[nH]c3ccccc23)NC(=O)[C@H](CCC(N)=O)NC(=O)[C@H](Cc2ccc(O)cc2)NC(=O)[C@H](C(C)C)NC(=O)[C@H](C)NC(=O)[C@H](Cc2ccc(O)cc2)NC(=O)[C@H](CCCNC(=N)N)NC(=O)[C@H](C)N(C)C(=O)C[C@@H](C(=O)N2CCCC2)NC(=O)[C@@H]2CCCN2C(=O)[C@H](Cc2ccc(O)cc2)NC1=O) [PP12]")
12.7
>>> quantitative_result("XKFAQFRWIYPD (HELM PEPTIDE1{[meA].K.F.A.Q.F.R.W.I.Y.P.D.[C1CCN([*:1])C1]}$PEPTIDE1,PEPTIDE1,1:R1-12:R3$$$V2.0; SMILES CC[C@H](C)[C@@H]1NC(=O)[C@H](Cc2c[nH]c3ccccc23)NC(=O)[C@H](CCCNC(=N)N)NC(=O)[C@H](Cc2ccccc2)NC(=O)[C@H](CCC(N)=O)NC(=O)[C@H](C)NC(=O)[C@H](Cc2ccccc2)NC(=O)[C@H](CCCCN)NC(=O)[C@H](C)N(C)C(=O)C[C@@H](C(=O)N2CCCC2)NC(=O)[C@@H]2CCCN2C(=O)[C@H](Cc2ccc(O)cc2)NC1=O) [PP11]")
29.1
>>> quantitative_result("XDIWFDYWDYD (HELM PEPTIDE1{[meA].D.I.W.F.D.Y.W.D.Y.D.[C1CCN([*:1])C1]}$PEPTIDE1,PEPTIDE1,1:R1-11:R3$$$V2.0; SMILES CC[C@H](C)[C@@H]1NC(=O)[C@H](CC(=O)O)NC(=O)[C@H](C)N(C)C(=O)C[C@@H](C(=O)N2CCCC2)NC(=O)[C@H](Cc2ccc(O)cc2)NC(=O)[C@H](CC(=O)O)NC(=O)[C@H](Cc2c[nH]c3ccccc23)NC(=O)[C@H](Cc2ccc(O)cc2)NC(=O)[C@H](CC(=O)O)NC(=O)[C@H](Cc2ccccc2)NC(=O)[C@H](Cc2c[nH]c3ccccc23)NC1=O) [PP18]")
0.6
>>> quantitative_result("XPNSSWFKIWD (HELM PEPTIDE1{[C[C@H](C(=O)[*:2])N(C)[*:1]].P.N.S.S.W.F.K.I.W.D.[C1CCN([*:1])C1]}$PEPTIDE1,PEPTIDE1,1:R1-11:R3$$$V2.0; SMILES CC[C@H](C)[C@@H]1NC(=O)[C@H](CCCCN)NC(=O)[C@H](Cc2ccccc2)NC(=O)[C@H](Cc2c[nH]c3ccccc23)NC(=O)[C@H](CO)NC(=O)[C@H](CO)NC(=O)[C@H](CC(N)=O)NC(=O)[C@@H]2CCCN2C(=O)[C@@H](C)N(C)C(=O)C[C@@H](C(=O)N2CCCC2)NC(=O)[C@H](Cc2c[nH]c3ccccc23)NC1=O) [PP6]")
13.1
>>> quantitative_result("XVFYKIWYNWD (HELM PEPTIDE1{[meA].V.F.Y.K.I.W.Y.N.W.D.[C1CCN([*:1])C1]}$PEPTIDE1,PEPTIDE1,1:R1-11:R3$$$V2.0; SMILES CC[C@H](C)[C@@H]1NC(=O)[C@H](CCCCN)NC(=O)[C@H](Cc2ccc(O)cc2)NC(=O)[C@H](Cc2ccccc2)NC(=O)[C@H](C(C)C)NC(=O)[C@H](C)N(C)C(=O)C[C@@H](C(=O)N2CCCC2)NC(=O)[C@H](Cc2c[nH]c3ccccc23)NC(=O)[C@H](CC(N)=O)NC(=O)[C@H](Cc2ccc(O)cc2)NC(=O)[C@H](Cc2c[nH]c3ccccc23)NC1=O) [PP19]")
3.7

Query :: Given XHSNAWYNIWD (HELM PEPTIDE1{[meA].H.S.N.A.W.Y.N.I.W.D.[C1CCN([*:1])C1]}$PEPTIDE1,PEPTIDE1,1:R1-11:R3$$$V2.0; SMILES CC[C@H](C)[C@@H]1NC(=O)[C@H](CC(N)=O)NC(=O)[C@H](Cc2ccc(O)cc2)NC(=O)[C@H](Cc2c[nH]c3ccccc23)NC(=O)[C@H](C)NC(=O)[C@H](CC(N)=O)NC(=O)[C@H](CO)NC(=O)[C@H](Cc2c[nH]cn2)NC(=O)[C@H](C)N(C)C(=O)C[C@@H](C(=O)N2CCCC2)NC(=O)[C@H](Cc2c[nH]c3ccccc23)NC1=O) [PP5] , state its recorded 50% inhibition concentration, Regnase-1 phosphorylation by TBK1 (AlphaScreen).
Result :: 24.2

Query :: Check XRFRQWKWVYPD (HELM PEPTIDE1{[meA].R.F.R.Q.W.K.W.V.Y.P.D.[C1CCN([*:1])C1]}$PEPTIDE1,PEPTIDE1,1:R1-12:R3$$$V2.0; SMILES CC(C)[C@@H]1NC(=O)[C@H](Cc2c[nH]c3ccccc23)NC(=O)[C@H](CCCCN)NC(=O)[C@H](Cc2c[nH]c3ccccc23)NC(=O)[C@H](CCC(N)=O)NC(=O)[C@H](CCCNC(=N)N)NC(=O)[C@H](Cc2ccccc2)NC(=O)[C@H](CCCNC(=N)N)NC(=O)[C@H](C)N(C)C(=O)C[C@@H](C(=O)N2CCCC2)NC(=O)[C@@H]2CCCN2C(=O)[C@H](Cc2ccc(O)cc2)NC1=O) [PP13] too.
Result :: 8.4
